test system: IGROV1 ovarian; experiment: NCI tumour cell line growth inhibition, 48 h

- compound: "[N-]=[N+]=Nc1ccccc1-[n+]1noc([O-])c1Br"
  test_system: "IGROV1 ovarian"
  TGI: "> 100 µM"
- compound: "CCOC(=O)c1ccc2c(c1)[n+](=O)c(C(=O)c1ccc3ccccc3c1)c(C(F)(F)F)n2[O-]"
  test_system: "IGROV1 ovarian"
  TGI: "1.21 µM"
- compound: "Nc1nc(=O)n(C2CC(O)C(O)C(CO)O2)cc1F (stereo not drawn)"
  test_system: "IGROV1 ovarian"
  TGI: "> 100 µM"
- compound: "O=C1Nc2ccccc2C1(c1ccc(O)c(F)c1)c1ccc(O)c(F)c1"
  test_system: "IGROV1 ovarian"
  TGI: "50.6 µM"
- compound: "CC1(C)Cc2cccc(OCC(O)CN3CCN(c4ccc(F)cc4)CC3)c2O1 (stereo not drawn)"
  test_system: "IGROV1 ovarian"
  TGI: "> 50 µM"
- compound: "Cc1[nH]c2ncn3ncnc3c2c1Cc1ccccc1"
  test_system: "IGROV1 ovarian"
  TGI: "> 100 µM"
- compound: "COc1cc(CNc2nc3ccccc3nc2-c2cccs2)cc(OC)c1OC"
  test_system: "IGROV1 ovarian"
  TGI: "> 100 µM"
- compound: "O=C(Nc1ncc(Cc2ccccc2)s1)c1ccc2c(c1)OCCO2"
  test_system: "IGROV1 ovarian"
  TGI: "> 100 µM"
- compound: "COc1ccc2nc3cccc([N+](=O)[O-])c3c(NCCN(CCO)CCO)c2c1"
  test_system: "IGROV1 ovarian"
  TGI: "0.242 µM"
- compound: "O=c1cc2n(c(=O)[nH]1)C1OC(C(O)C1O)[C@H]2CCO (stereo partly drawn)"
  test_system: "IGROV1 ovarian"
  TGI: "> 100 µM"
- compound: "CCCCC(NC(=O)CC)C(=O)O (stereo not drawn)"
  test_system: "IGROV1 ovarian"
  TGI: "> 100 µM"
- compound: "CN(C)c1ccccc1CC(c1c[nH]c2ccccc12)c1c[nH]c2ccccc12"
  test_system: "IGROV1 ovarian"
  TGI: "30.9 µM"
- compound: "COc1ccc(-c2nc(N(C)C)c3ccccc3n2)cc1"
  test_system: "IGROV1 ovarian"
  TGI: "> 100 µM"
- compound: "COc1ccc(-n2nnc3c(C#N)c(-c4ccccc4)c(C)n3c2=O)cc1"
  test_system: "IGROV1 ovarian"
  TGI: "> 100 µM"
- compound: "OC(c1ccsc1)c1cc2ccccc2s1 (stereo not drawn)"
  test_system: "IGROV1 ovarian"
  TGI: "> 10 µM"
- compound: "COC(=O)NNc1c([N+](=O)[O-])cnn(-c2ccccc2)c1=O"
  test_system: "IGROV1 ovarian"
  TGI: "36.2 µM"
- compound: "CC1=NN(c2nc(N)nc(C(C)Sc3cc(Cl)c(C)cc3S(N)(=O)=O)n2)C(C)(C)C1 (stereo not drawn)"
  test_system: "IGROV1 ovarian"
  TGI: "> 10 µM"
- compound: "COc1cc(COC(=O)N2CCCCC2C(=O)O)c([N+](=O)[O-])cc1OC (stereo not drawn)"
  test_system: "IGROV1 ovarian"
  TGI: "> 100 µM"
- compound: "COc1ccc2c(C)cc(N/N=C/c3sccc3C)nc2c1"
  test_system: "IGROV1 ovarian"
  TGI: "27.4 µM"
- compound: "CCCCOP(=O)(OCCCC)/C(C#N)=C/c1ccc(C)o1"
  test_system: "IGROV1 ovarian"
  TGI: "> 100 µM"
- compound: "CCOC(=O)N1CC2(C(=O)OC)C=CC1C(C(=O)OC)C2 (stereo not drawn)"
  test_system: "IGROV1 ovarian"
  TGI: "> 100 µM"
- compound: "O=C(Nc1ccc(Cl)c(Cl)c1)C(=O)C(C1OC(=O)c2ccccc21)[N+](=O)[O-] (stereo not drawn)"
  test_system: "IGROV1 ovarian"
  TGI: "> 100 µM"
- compound: "CN(CCCCCl)P(=O)(OCc1ccc([N+](=O)[O-])o1)C(F)(F)c1ccc(CC(=O)N[C@@H](CC(=O)O)C(=O)N[C@@H](Cc2ccc(C(F)(F)P(=O)(OCc3ccc([N+](=O)[O-])o3)N(C)CCCCCl)cc2)C(N)=O)cc1 (stereo partly drawn)"
  test_system: "IGROV1 ovarian"
  TGI: "> 100 µM"
- compound: "CCOc1ccc(C2=C(Cl)c3cc(OC)c(OC)cc3C2Cl)cc1 (stereo not drawn)"
  test_system: "IGROV1 ovarian"
  TGI: "> 100 µM"
- compound: "O=C(Cn1c(C(=O)/C=C/c2ccco2)nc2ccccc21)c1ccc(Cl)cc1"
  test_system: "IGROV1 ovarian"
  TGI: "57.1 µM"
- compound: "CC(C)(C)C(=O)OCOP(=O)(OCOC(=O)C(C)(C)C)C1CCCN(OC(=O)c2ccccc2)C1=O (stereo not drawn)"
  test_system: "IGROV1 ovarian"
  TGI: "3.08 µM"
- compound: "O=C1CSC(=S)N1c1ccc(F)cc1F"
  test_system: "IGROV1 ovarian"
  TGI: "> 100 µM"
- compound: "O=C(O)c1cc(N/C=C2\\C(=O)c3ccccc3OC2O)ccc1O (stereo not drawn)"
  test_system: "IGROV1 ovarian"
  TGI: "61.8 µg/mL"
- compound: "Cc1nc2c(=O)[nH]c3ccccc3c2o1"
  test_system: "IGROV1 ovarian"
  TGI: "> 100 µM"
- compound: "COc1cc(C2C(Cl)C(=O)N2NC(=O)c2ccc(NC(C)=O)cc2)cc(Br)c1O (stereo not drawn)"
  test_system: "IGROV1 ovarian"
  TGI: "> 100 µM"
- compound: "Cc1ccc(S(=O)(=O)c2c(N)c3nccn3c3nc4ccccc4nc23)cc1"
  test_system: "IGROV1 ovarian"
  TGI: "> 100 µM"
- compound: "Fc1ccc(-c2ncn(C3CCNCC3)c2-c2ccnc(Oc3ccccc3)n2)cc1"
  test_system: "IGROV1 ovarian"
  TGI: "> 25 µM"
- compound: "CC(=O)OCc1cccc(O)c1C(=O)CCC=C(C)C"
  test_system: "IGROV1 ovarian"
  TGI: "> 100 µM"
- compound: "O=S(=O)(O)c1ccc(Cl)cc1.[Cd]"
  test_system: "IGROV1 ovarian"
  TGI: "43.2 µM"
- compound: "Cn1c(N(CCO)CCO)cnc1[N+](=O)[O-]"
  test_system: "IGROV1 ovarian"
  TGI: "> 100 µM"
- compound: "C[N+](C)(C)CCC(=O)N1C/C(=C\\c2ccccc2)C(=O)/C(=C/c2ccccc2)C1"
  test_system: "IGROV1 ovarian"
  TGI: "13.4 µM"
- compound: "Cc1cc2cc(Cl)ccc2nc1C(=O)c1ccccc1"
  test_system: "IGROV1 ovarian"
  TGI: "> 100 µM"
- compound: "CC(C)=CCC/C(C)=C/CC/C(C)=C/CC/C=C(\\C)CC/C=C(\\C)CCC1SC1(C)C (stereo not drawn)"
  test_system: "IGROV1 ovarian"
  TGI: "> 100 µM"
- compound: "NCCCCC(N)C(=O)N1CCN(c2nc(N3CCCC3)c3nc(Cl)c(NCc4ccccc4)nc3n2)CC1 (stereo not drawn)"
  test_system: "IGROV1 ovarian"
  TGI: "33.9 µM"
- compound: "O=c1c2c(sc3ccccc13)NCN(CCc1ccccc1)C2"
  test_system: "IGROV1 ovarian"
  TGI: "> 100 µM"
- compound: "Cc1c(/C=N/NC(=O)c2ccccc2)c(=O)n(-c2ccccc2)n1C"
  test_system: "IGROV1 ovarian"
  TGI: "> 100 µM"
- compound: "Fc1ccc(CNc2c3ccccc3nc3ccccc23)cc1"
  test_system: "IGROV1 ovarian"
  TGI: "6.02 µM"
- compound: "O=C(/C=C/C=C/c1ccccc1)c1ccc(Nc2nc(Nc3ccccc3)nc(Nc3ccccc3)n2)cc1"
  test_system: "IGROV1 ovarian"
  TGI: "> 100 µM"
